Taken from paper PMC2920546.

ASSAY_INFO: Pharmacokinetics and tissue distribution in CD-1 mice
Assay type: in vivo
EXPERIMENTAL_CONTEXT: female, ICR/CD-1, mouse, lungs, IP 10 mg/kg
MEASUREMENT_LABEL: AUC
Kindly report the value followed by its unit.

Query: Which AUC reading was recorded for the compound O=C1C(NCc2ccccc2)=CC2=NCCc3c[nH]c1c32 ?
Reply: 9150 ng·h/mL

---

ASSAY_INFO: Pharmacokinetics and tissue distribution in CD-1 mice
Format: in vivo
EXPERIMENTAL_CONTEXT: female, mouse, spleen, IV 5 mg/kg
MEASUREMENT_LABEL: AUC (ng·h/mL)
Number in ng·h/mL, nothing else.

Query: Which AUC reading was recorded for the compound O=C1C(NCc2ccccc2)=CC2=NCCc3c[nH]c1c32 [BA-TPQ] ?
Reply: 1800
